B1: library; numbered along this chain (parent)
chain: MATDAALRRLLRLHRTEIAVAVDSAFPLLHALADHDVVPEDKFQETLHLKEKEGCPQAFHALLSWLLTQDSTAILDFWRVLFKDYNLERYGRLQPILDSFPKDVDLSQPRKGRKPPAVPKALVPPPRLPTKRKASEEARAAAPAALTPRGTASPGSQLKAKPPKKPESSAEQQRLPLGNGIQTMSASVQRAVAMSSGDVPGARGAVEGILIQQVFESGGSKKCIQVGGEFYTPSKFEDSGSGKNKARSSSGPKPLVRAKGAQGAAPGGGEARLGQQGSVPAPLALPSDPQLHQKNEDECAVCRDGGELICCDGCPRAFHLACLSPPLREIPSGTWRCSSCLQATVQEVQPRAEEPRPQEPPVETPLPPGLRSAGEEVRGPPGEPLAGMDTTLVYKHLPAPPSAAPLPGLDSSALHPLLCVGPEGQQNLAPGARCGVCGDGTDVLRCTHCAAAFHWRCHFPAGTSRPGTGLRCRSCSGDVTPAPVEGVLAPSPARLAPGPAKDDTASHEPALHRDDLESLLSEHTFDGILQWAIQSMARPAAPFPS

- Variants of: B1
- Experimental protocol: AIRE transcriptional activation functional score (insulin promoter-GFP; nonsense median 0, synonymous median 1) (normalised score); higher = higher AIRE activity (more reporter activation)
- Run parameters: with insulin promoter-GFP reporter in HEK293
Let's look at some variants and their measured AIRE transcriptional activation functional score.
Measurement name: AIRE transcriptional activation functional score

Alteration	Observed value
L392V	1.36
V479F	0.98
K42Y	-0.464
P360Y	1.2
V22M	-0.505
S278T	1.23
E354Q	0.948
G240P	0.78
A142C	1.03
